# assay_comment: chemical genetic growth profiling, strain panel (AID 1159580);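 further: tested at 20 µM; growth read once vehicle control cultures reached saturation at 30 °C; 1 = growth at the plate median or of vehicle wells; lower values mean less growth of the strain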
# reported_conditions: S. cerevisiae deletion strains, growth OD, locus YML032C, strain rad52, active compounds read low
Out of some 5,500 compounds screened, about 2,000 (36%) were called active. Roughly 18% stayed inconclusive and do not appear here. The list shows a part of the results.
observation_type: normalized growth
Quick one: just the number, no unit, thanks!

In: Could you tell me which normalized growth is on file for CCC(=O)c1ccc2c(c1)N(CC(C)N(C)C)c1ccccc1S2 (configuration not stated) ?
Out: 0.982

In: Using the record for C[C@H](CCC(=O)O)[C@H]1CCC2C3C(CC[C@@]21C)[C@@]1(C)CC[C@@H](O)C[C@H]1C[C@@H]3O (some centres not stated) , report its normalized growth.
Out: 0.95

In: // returns reported normalized growth for input "CN(C(=O)CN(CCO)CC(=O)N(C)C(C)(C)Cc1ccccc1)C(C)(C)Cc1ccccc1"
Out: 0.98

In: Endpoint output: normalized growth of CC[C@H](CCC(C)[C@H]1CCC2C3CCC4C[C@@H](O)CC[C@]4(C)C3CC[C@@]21C)C(C)C (some centres not stated) . Value?
Out: 1.01

In: Name the recorded normalized growth for CC(CCC(=O)O)[C@H]1CCC2C3C[C@H](O)[C@@H]4C[C@H](O)CC[C@]4(C)C3CC[C@@]21C (some centres not stated) .
Out: 1.01

In: Return reported normalized growth; argument: CC(CCC(=O)O)[C@H]1CCC2C3CC[C@@H]4C[C@H](O)CC[C@]4(C)C3CC[C@@]21C (some centres not stated)
Out: 0.914

In: Could you tell me which normalized growth is on file for "CNCCCN1c2ccccc2CCc2ccccc21" ?
Out: 0.999

In: Need normalized growth of "NNCCc1ccccc1" , thanks.
Out: 0.996

In: For the compound shown here, COC(=O)CCC(C)C1CCC2C3CC[C@@H]4C[C@H](O)CC[C@]4(C)C3C[C@H](O)[C@]12C (some centres not stated) , give the reported normalized growth.
Out: 0.981

In: Fill in the blank: the reported normalized growth of CC(CN1c2ccccc2Sc2ccccc21)N(C)C (configuration not stated) is ____.
Out: 0.908

In: For the compound shown here, CC(CCC(=O)O)[C@H]1CCC2C3C(C[C@H](O)[C@@]21C)[C@@]1(C)CC[C@@H](O)C[C@H]1C[C@H]3O (some centres not stated) , give the reported normalized growth.
Out: 0.995

In: Which normalized growth reading was recorded for the compound "N[C@@H]1[C@@H](O)[C@H](O)[C@@H](CO)O[C@H]1O" ?
Out: 0.994

---

# assay_comment: chemical genetic growth profiling, strain panel (AID 1159580);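 further: tested at 20 µM; growth read once vehicle control cultures reached saturation at 30 °C; 1 = growth at the plate median or of vehicle wells; lower values mean less growth of the strain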
# reported_conditions: S. cerevisiae deletion strains, growth OD, locus YOR329C, strain SCD5, active compounds read low
Among all 5,500 compounds or so, about 2,000 (36%) were called active. Roughly 18% stayed inconclusive and do not appear here. The list shows a part of the results.
Please respond with reported normalized growth for every item in the list.
Please respond with just the number, no unit label.

In: # get_value(readout='normalized growth', item= O=C1CSC(c2ccc(C(F)(F)F)cc2)N1c1ccc(C(F)(F)F)cc1 (stereo unspecified) )
Out: 1

In: Any idea what its normalized growth is? The compound is "C/C(=N/Nc1ccccc1)c1cc(Cl)cc(Cl)c1O"
Out: 0.974

In: Fill in: normalized growth of COc1ccc(CC2CCC(=NOC(=O)c3ccc(C(C)(C)C)cc3)CC2)cc1 (stereo unspecified) is ___
Out: 0.998

In: Entry Cc1ccc(N2C(=O)CSC2c2ccc(Cl)c(Cl)c2)cc1Cl (stereo unspecified) has what normalized growth?
Out: 0.972

In: Reported normalized growth for "Cc1ccc(S(=O)(=O)Nc2ccc(Oc3ccc(F)cc3)cc2)cc1" : what is it?
Out: 0.983

In: Entry "O=S(=O)(Nc1ccc(Oc2ccc(OC(F)(F)F)cc2)cc1)c1cccc(Cl)c1" has what normalized growth?
Out: 0.974
